- target under test: MERTK (human)
- test protocol: KINOMEscan competition binding
- conditions: compound 10.0 µM
result type: kinase still bound, per cent of control (%)
# unit: % | format: bare number

A selection of reference data follows.
[[record]]
compound = "CC(=O)c1c(C)c2cnc(Nc3ccc(N4CCNCC4)cn3)nc2n(C2CCCC2)c1=O"
result_type = "kinase still bound, per cent of control"
unit_abbreviation = "%"
quantitative_readout = 39

[[record]]
compound = "Cc1cn(-c2cc(C(=O)Nc3ccc(C)c(NC(=O)c4ccno4)c3)cc(C(F)(F)F)c2)cn1"
result_type = "kinase still bound, per cent of control"
unit_abbreviation = "%"
quantitative_readout = 100


With those in mind, consider the next compound.
Q: Find kinase still bound, per cent of control (MERTK (human)) for the entry CC1=C(C(=O)Nc2cc3cn[nH]c3cc2F)C(c2ccc(C(F)(F)F)cc2)CC(=O)N1 (configuration not stated)
A: 91

* * *

Quick reference: kinase still bound, per cent of control of the listed items.
- target under test: SIK2 (human) (UniProt Q9H0K1)
- Sequence (Q9H0K1 whole entry, looked up): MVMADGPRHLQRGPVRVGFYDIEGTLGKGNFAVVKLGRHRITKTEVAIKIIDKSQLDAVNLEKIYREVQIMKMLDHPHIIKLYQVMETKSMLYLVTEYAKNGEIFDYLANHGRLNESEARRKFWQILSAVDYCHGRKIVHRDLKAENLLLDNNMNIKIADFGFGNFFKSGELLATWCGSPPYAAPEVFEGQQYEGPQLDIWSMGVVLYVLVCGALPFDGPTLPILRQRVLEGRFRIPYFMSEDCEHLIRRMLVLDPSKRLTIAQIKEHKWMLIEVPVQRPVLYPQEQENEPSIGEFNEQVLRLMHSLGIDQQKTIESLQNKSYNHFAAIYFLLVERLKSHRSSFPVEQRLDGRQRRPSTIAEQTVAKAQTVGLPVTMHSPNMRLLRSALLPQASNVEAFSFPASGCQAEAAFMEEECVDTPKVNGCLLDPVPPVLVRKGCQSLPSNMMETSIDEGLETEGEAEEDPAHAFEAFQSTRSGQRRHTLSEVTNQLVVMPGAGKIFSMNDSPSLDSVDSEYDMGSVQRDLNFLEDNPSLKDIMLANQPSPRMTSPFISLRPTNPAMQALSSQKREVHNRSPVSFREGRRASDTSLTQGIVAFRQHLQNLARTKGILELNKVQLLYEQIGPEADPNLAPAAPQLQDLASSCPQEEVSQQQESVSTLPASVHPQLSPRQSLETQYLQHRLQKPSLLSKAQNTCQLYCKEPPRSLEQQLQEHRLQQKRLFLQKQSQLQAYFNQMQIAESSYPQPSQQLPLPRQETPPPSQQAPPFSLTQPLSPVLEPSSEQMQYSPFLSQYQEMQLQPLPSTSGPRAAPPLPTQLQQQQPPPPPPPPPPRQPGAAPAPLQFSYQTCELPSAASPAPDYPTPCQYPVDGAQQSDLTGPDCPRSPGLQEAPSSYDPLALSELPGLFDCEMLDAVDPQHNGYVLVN
- test protocol: KINOMEscan competition binding
- conditions: compound 10.0 µM

Examples from the recorded data:
[[record]]
compound = "N#C/C(=C1/Nc2ccccc2S1)c1ccnc(NCCc2cccnc2)n1"
result = "82%"

[[record]]
compound = "C=CC(=O)Nc1ccc(C(=O)c2sc(Nc3ccc(N4CCN(C)CC4)cc3OC)nc2N)cc1"
result = "72%"


Q: Give its kinase still bound, per cent of control value. Item: CCOc1cc(N2CCC(O)CC2)ccc1Nc1ncc2c(n1)N(C)c1ccccc1C(=O)N2C
A: 100%

Q: // kinase still bound, per cent of control lookup, key: COc1cc2c(Nc3ccc(NC(=O)c4ccccc4)cc3)ncnc2cc1OCCCN1CCOCC1
A: 63%

Q: Report kinase still bound, per cent of control for CCCS(=O)(=O)Nc1ccc(F)c(C(=O)c2c[nH]c3ncc(Cl)cc23)c1F please.
A: 84%

Q: Can you look up the measured kinase still bound, per cent of control of CC(=O)c1c(C)c2cnc(Nc3ccc(N4CCNCC4)cn3)nc2n(C2CCCC2)c1=O for me?
A: 63%

Q: Would you kindly share the measured kinase still bound, per cent of control for CC1=C(C(=O)Nc2cc3cn[nH]c3cc2F)C(c2ccc(C(F)(F)F)cc2)CC(=O)N1 (centres undefined) ?
A: 99%

Q: kinase still bound, per cent of control for CCc1nc(-c2cccc(C)c2)c(-c2ccnc(NC(=O)c3ccccc3)c2)s1 ?
A: 62%

Q: I am curious: what kinase still bound, per cent of control value has been reported for CNC(=O)Nc1ccc(-c2nc(N3CC4CCC(C3)O4)c3cnn(C4CCC5(CC4)OCCO5)c3n2)cc1 ?
A: 97%

Q: May I ask what kinase still bound, per cent of control has been recorded for N#Cc1cc(-c2ccnc(Nc3ccc(-n4cnc(-c5cccnc5)n4)cc3)n2)cc(N2CCOCC2)c1 ?
A: 33%

Q: Quick one: kinase still bound, per cent of control of Cc1cn(-c2cc(C(=O)Nc3ccc(C)c(NC(=O)c4ccno4)c3)cc(C(F)(F)F)c2)cn1 ?
A: 100%

Q: Recorded kinase still bound, per cent of control of COc1cc2ncnc(Nc3cccc(Cl)c3)c2cc1OC , please.
A: 67%

Q: // lookup kinase still bound, per cent of control for CCN1CCN(Cc2ccc(NC(=O)c3ccc(C)c(/C=C/c4cnc5[nH]ccc5c4OC)c3)cc2C(F)(F)F)CC1
A: 30%

Q: Quick one: kinase still bound, per cent of control of COc1cc(N2CCC(C(N)=O)CC2)ccc1Nc1nc(N)c(Cl)c(Nc2ccccc2S(=O)(=O)C(C)C)n1 ?
A: 100%
